B1: Caulobacter ParB omega fusion; a variant is named by its letters at X, in order, B8GW30 (parent)
chain: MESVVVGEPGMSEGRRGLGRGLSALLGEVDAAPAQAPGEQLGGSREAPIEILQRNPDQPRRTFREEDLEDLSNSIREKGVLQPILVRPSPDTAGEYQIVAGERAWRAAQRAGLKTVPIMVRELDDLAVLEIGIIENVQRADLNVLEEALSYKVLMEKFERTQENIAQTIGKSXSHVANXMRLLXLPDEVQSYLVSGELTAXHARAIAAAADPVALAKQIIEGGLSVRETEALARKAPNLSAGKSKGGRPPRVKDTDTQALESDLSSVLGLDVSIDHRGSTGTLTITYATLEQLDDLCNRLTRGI

- Variants of: B1
- procedure_details: one-hybrid fitness for binding parS DNA (scaled: cognate 1, non-cognate 0); higher = stronger binding
- assay_context: with parS DNA site
Whole data set: some 81,000 sequences, median “one-hybrid fitness for binding parS DNA” near -0.17, cut for the highest 2% near 0.51. The entries come from a sample that favours the highest values as a whole.
Each entry below carries its reported one-hybrid fitness for binding parS DNA.
measured_endpoint: one-hybrid fitness for binding parS DNA

{"mutation_id": "KGIS", "measured_endpoint": "one-hybrid fitness for binding parS DNA", "assay_result": "≤ 0.2"}
{"mutation_id": "LHPH", "measured_endpoint": "one-hybrid fitness for binding parS DNA", "assay_result": "≤ 0.2"}
{"mutation_id": "MPTI", "measured_endpoint": "one-hybrid fitness for binding parS DNA", "assay_result": "≤ 0.2"}
{"mutation_id": "APQI", "measured_endpoint": "one-hybrid fitness for binding parS DNA", "assay_result": "≤ 0.2"}
{"mutation_id": "APGA", "measured_endpoint": "one-hybrid fitness for binding parS DNA", "assay_result": "≤ 0.2"}
{"mutation_id": "HGSI", "measured_endpoint": "one-hybrid fitness for binding parS DNA", "assay_result": "≤ 0.2"}
{"mutation_id": "SSPQ", "measured_endpoint": "one-hybrid fitness for binding parS DNA", "assay_result": "≤ 0.2"}
{"mutation_id": "RKFK", "measured_endpoint": "one-hybrid fitness for binding parS DNA", "assay_result": "≤ 0.2"}
{"mutation_id": "RKFG", "measured_endpoint": "one-hybrid fitness for binding parS DNA", "assay_result": 0.946}
{"mutation_id": "RKAG", "measured_endpoint": "one-hybrid fitness for binding parS DNA", "assay_result": 0.959}
{"mutation_id": "RKFQ", "measured_endpoint": "one-hybrid fitness for binding parS DNA", "assay_result": "≤ 0.2"}

// provenance: a collection of fitness landscapes (doi:10.1016/j.celrep.2020.107928)
